- SYSTEM TESTED: T1, human MSLN-FL-his protein (human, UniProt Q13421 296-580)
- T1 construct: made in HEK293E cells, purified on nickel column; also called hMSLN-FL-his; human MSLN full-length protein; not shown: His tag
- T1 sequence (Q13421 other isoform, or with tags, fused parts or gaps): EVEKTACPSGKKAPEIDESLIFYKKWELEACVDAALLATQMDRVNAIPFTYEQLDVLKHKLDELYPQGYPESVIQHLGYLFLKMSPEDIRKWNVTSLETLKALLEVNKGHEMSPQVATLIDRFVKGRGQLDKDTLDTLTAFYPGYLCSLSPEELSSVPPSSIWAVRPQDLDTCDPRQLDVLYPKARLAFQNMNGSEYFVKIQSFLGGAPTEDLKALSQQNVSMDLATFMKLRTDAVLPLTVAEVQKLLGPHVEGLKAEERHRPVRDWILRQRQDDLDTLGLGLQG
- MEASUREMENT PROTOCOL: competitive ELISA; row F8-28.23; further: test concentration or dose not given here
QUANTITY KIND: competition rate (%)
Number only, in %; omit the unit.

## Input Request the reported competition rate associated with S009-F8-24.14 (antibody, human IgG1, kappa, V domains shown, human-murine chimeric antibody, human IgG1/kappa constant regions) VH: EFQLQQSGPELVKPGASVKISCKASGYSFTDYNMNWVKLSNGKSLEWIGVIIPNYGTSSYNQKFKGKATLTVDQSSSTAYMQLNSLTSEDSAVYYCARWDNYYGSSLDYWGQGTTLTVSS VL: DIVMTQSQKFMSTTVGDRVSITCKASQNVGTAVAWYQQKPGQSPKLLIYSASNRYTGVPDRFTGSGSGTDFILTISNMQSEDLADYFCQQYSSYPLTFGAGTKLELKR
## Output 95

## Input Request the reported competition rate associated with S009-F8-8.22 (antibody, human IgG1, kappa, V domains shown, human-murine chimeric antibody, human IgG1/kappa constant regions) VH: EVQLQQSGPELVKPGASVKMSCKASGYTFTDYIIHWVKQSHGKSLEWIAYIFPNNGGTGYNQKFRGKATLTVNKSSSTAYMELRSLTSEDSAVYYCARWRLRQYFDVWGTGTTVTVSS VL: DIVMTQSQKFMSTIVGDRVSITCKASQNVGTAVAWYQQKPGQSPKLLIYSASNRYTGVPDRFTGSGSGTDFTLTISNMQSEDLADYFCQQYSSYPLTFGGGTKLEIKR
## Output 97.4

## Input Request the reported competition rate associated with S009-F8-32.3 (antibody, human IgG1, kappa, V domains shown, human-murine chimeric antibody, human IgG1/kappa constant regions) VH: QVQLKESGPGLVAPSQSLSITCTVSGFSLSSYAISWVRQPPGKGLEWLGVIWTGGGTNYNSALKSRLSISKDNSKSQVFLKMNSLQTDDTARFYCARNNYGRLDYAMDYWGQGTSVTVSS VL: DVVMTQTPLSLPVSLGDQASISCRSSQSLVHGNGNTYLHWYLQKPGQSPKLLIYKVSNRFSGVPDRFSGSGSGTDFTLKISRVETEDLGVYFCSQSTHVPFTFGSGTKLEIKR
## Output 102

## Input Request the reported competition rate associated with S009-F8-22.23 (antibody, human IgG1, kappa, V domains shown, human-murine chimeric antibody, human IgG1/kappa constant regions) VH: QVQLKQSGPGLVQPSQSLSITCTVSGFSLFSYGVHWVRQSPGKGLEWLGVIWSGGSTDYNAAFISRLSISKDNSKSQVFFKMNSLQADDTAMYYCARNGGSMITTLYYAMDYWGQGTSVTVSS VL: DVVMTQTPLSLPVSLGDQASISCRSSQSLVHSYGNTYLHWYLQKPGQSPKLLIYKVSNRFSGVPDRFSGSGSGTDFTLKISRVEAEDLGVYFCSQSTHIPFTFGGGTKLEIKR
## Output 100

Cited source: patent US20250250357A1
